Source of measurements: paper PMC10794144

- System: A. baumannii
- assay-details: microbe, parasite or virus in culture
- condition-description: Acinetobacter baumannii, ROB08702; CAMHB; MCPs read at 80% inhibition
endpoint-name: MIC (µg/mL)
Give the quantity in µg/mL, number only.

The following compounds have reported results that may help.
CN1C(=O)[C@H](CCCCN)NC(=O)[C@H](CCCN)NCc2cccnc2Sc2cccc(-c3ccc(C(=O)O)cc3)c2CNC(=O)[C@@H]1Cc1c[nH]c2ccccc12: 0.12
CN(C)c1cc(NC(=O)CNC(C)(C)C)c(O)c2c1C[C@H]1C[C@H]3[C@H](N(C)C)C(O)=C(C(N)=O)C(=O)[C@@]3(O)C(O)=C1C2=O [tigecycline, reference compound]: 4

Consider the record given below.
Ask | Field: MIC (A. baumannii). Entry: CN1C(=O)[C@H](CCCCN)NC(=O)[C@H](CCCN)NCc2cccnc2Sc2c(Cl)ccc(Cl)c2CNC(=O)[C@@H]1Cc1c[nH]c2ccccc12
Reply | 0.12

---

- Test system: A. baumannii
- assay-details: microbe, parasite or virus in culture
- condition-description: Acinetobacter baumannii, ATCC17978, ATCC 17978; CAMHB; one replicate; MCPs read at 80% growth inhibition
endpoint-name: MIC

Consider the following illustrative entries.
CN1C(=O)[C@H](CCCCN)NC(=O)[C@H](CCCN)NCc2cccnc2Sc2c(Cl)ccc(Cl)c2CNC(=O)[C@@H]1Cc1c[nH]c2ccccc12 [RO7075573]: ≤ 0.06 µg/mL
CN1C(=O)[C@H](CCCCN)NC(=O)[C@H](CCCN)NCc2cccnc2Sc2cccc(-c3ccc(C(=O)O)cc3)c2CNC(=O)[C@@H]1Cc1c[nH]c2ccccc12 [zosurabalpin]: ≤ 0.06 µg/mL

Ask | Returns the measured MIC for the input molecule. Input: C[C@@H](O)[C@H]1C(=O)N2C(C(=O)O)=C(S[C@@H]3CN[C@H](C(=O)N(C)C)C3)[C@H](C)[C@H]12 [meropenem, reference compound]
Reply | 0.5 µg/mL

Ask | Data request, read-out MIC, for CN1C(=O)[C@H](CCCCN)NC(=O)[C@H](CCCN)NCc2cccnc2Sc2c(Cl)ccc(-c3ccc(C(=O)O)cc3)c2CNC(=O)[C@@H]1Cc1c[nH]c2ccccc12 [RO7202110]
Reply | ≤ 0.06 µg/mL

---

Readings of MIC for the listed compounds
- System: A. baumannii
- assay-details: microbe, parasite or virus in culture
- condition-description: Acinetobacter baumannii, ROB08706; CAMHB; MCPs read at 80% inhibition
Lab book: enter the figure in µg/mL, no units written.

Ask | Reported MIC, compound CN1C(=O)[C@H](CCCCN)NC(=O)[C@H](CCCN)NCc2cccnc2Sc2cccc(-c3ccc(C(=O)O)cc3)c2CNC(=O)[C@@H]1Cc1c[nH]c2ccccc12 [zosurabalpin] : ____
Reply | 0.5

Ask | Quick one: MIC of CN(C)c1cc(NC(=O)CNC(C)(C)C)c(O)c2c1C[C@H]1C[C@H]3[C@H](N(C)C)C(O)=C(C(N)=O)C(=O)[C@@]3(O)C(O)=C1C2=O [tigecycline, reference compound] ?
Reply | 8

Ask | Name the recorded MIC for CN1C(=O)[C@H](CCCCN)NC(=O)[C@H](CCCN)NCc2cccnc2Sc2c(Cl)ccc(Cl)c2CNC(=O)[C@@H]1Cc1c[nH]c2ccccc12 [RO7075573] .
Reply | 0.5

---

- Test system: A. baumannii
- assay-details: microbe, parasite or virus in culture
- condition-description: Acinetobacter baumannii, ROB08708; CAMHB; MCPs read at 80% inhibition
Reported MIC values follow for various molecules
Express your answer in µg/mL, writing the number without its unit.

Ask | I'd like to know its MIC. The molecule in question is C[C@@H](O)[C@H]1C(=O)N2C(C(=O)O)=C(S[C@@H]3CN[C@H](C(=O)N(C)C)C3)[C@H](C)[C@H]12 [meropenem, reference compound]
Reply | 16

Ask | For the molecule shown here, CN1C(=O)[C@H](CCCCN)NC(=O)[C@H](CCCN)NCc2cccnc2Sc2c(Cl)ccc(Cl)c2CNC(=O)[C@@H]1Cc1c[nH]c2ccccc12 [RO7075573] , give the reported MIC.
Reply | 0.12

Ask | Item CN(C)c1cc(NC(=O)CNC(C)(C)C)c(O)c2c1C[C@H]1C[C@H]3[C@H](N(C)C)C(O)=C(C(N)=O)C(=O)[C@@]3(O)C(O)=C1C2=O [tigecycline, reference compound] has what recorded MIC?
Reply | 1

Ask | Endpoint output: MIC of CN1C(=O)[C@H](CCCCN)NC(=O)[C@H](CCCN)NCc2cccnc2Sc2cccc(-c3ccc(C(=O)O)cc3)c2CNC(=O)[C@@H]1Cc1c[nH]c2ccccc12 [zosurabalpin] . Value?
Reply | 0.12

---

Here's a batch of compounds along with measured IC50 for hERG (Homo sapiens, UniProt Q12809).

Sample records with IC50:
CN1C(=O)[C@H](CCCCN)NC(=O)[C@H](CCCN)NCc2cccnc2Sc2c(Cl)ccc(-c3ccc(C(=O)O)cc3)c2CNC(=O)[C@@H]1Cc1c[nH]c2ccccc12: > 20 µM
CN1C(=O)[C@H](CCCCN)NC(=O)[C@H](CCCN)NCc2cccnc2Sc2c(Cl)ccc(Cl)c2CNC(=O)[C@@H]1Cc1c[nH]c2ccccc12: > 10 µM

Next item in the queue.
Ask | Suppose we examine the compound CN1C(=O)[C@H](CCCCN)NC(=O)[C@H](CCCN)NCc2cccnc2Sc2cccc(-c3ccc(C(=O)O)cc3)c2CNC(=O)[C@@H]1Cc1c[nH]c2ccccc12 ; what IC50 value has been reported?
Reply | > 20 µM

---

- System: A. baumannii
- assay-details: microbe, parasite or virus in culture
- condition-description: Acinetobacter baumannii, ROB08709; CAMHB; MCPs read at 80% inhibition
Examples of molecules with documented MIC follow.
Numeric answer only, unit µg/mL assumed.

Ask | Recorded MIC for CN(C)c1cc(NC(=O)CNC(C)(C)C)c(O)c2c1C[C@H]1C[C@H]3[C@H](N(C)C)C(O)=C(C(N)=O)C(=O)[C@@]3(O)C(O)=C1C2=O [tigecycline, reference compound] , please?
Reply | 1

Ask | Any idea what its MIC is? The molecule is CN1C(=O)[C@H](CCCCN)NC(=O)[C@H](CCCN)NCc2cccnc2Sc2c(Cl)ccc(Cl)c2CNC(=O)[C@@H]1Cc1c[nH]c2ccccc12
Reply | 0.12

---

Listing of recorded MIC by entry.
- Tested on: E. coli ATCC 25922
- assay-details: microbe, parasite or virus in culture
- condition-description: Escherichia coli, ATCC25922

These recorded examples may help you get a feel for the data.
CN1C(=O)[C@H](CCCCN)NC(=O)[C@H](CCCN)NCc2cccnc2Sc2c(Cl)ccc(Cl)c2CNC(=O)[C@@H]1Cc1c[nH]c2ccccc12: > 64 µg/mL
C[C@@H](O)[C@H]1C(=O)N2C(C(=O)O)=C(S[C@@H]3CN[C@H](C(=O)N(C)C)C3)[C@H](C)[C@H]12 [meropenem, reference compound]: ≤ 0.06 µg/mL
CN1C(=O)[C@H](CCCCN)NC(=O)[C@H](CCCN)NCc2cccnc2Sc2c(Cl)ccc(-c3ccc(C(=O)O)cc3)c2CNC(=O)[C@@H]1Cc1c[nH]c2ccccc12: > 64 µg/mL

Ask | Dear colleague, I am looking for the recorded MIC of the following compound: CN1C(=O)[C@H](CCCN)NC(=O)[C@H](CCCN)NCc2ccccc2Sc2ccccc2CNC(=O)[C@@H]1Cc1c[nH]c2ccccc12
Reply | > 64 µg/mL

Ask | Tell me the measured MIC of CN1C(=O)[C@H](CCCCN)NC(=O)[C@H](CCCN)NCc2cccnc2Sc2cccc(-c3ccc(C(=O)O)cc3)c2CNC(=O)[C@@H]1Cc1c[nH]c2ccccc12 , please.
Reply | > 64 µg/mL

---

- test-target: Glycine receptor, strychnine insensitive (Rattus norvegicus)
- Sequence (P35439 394-800): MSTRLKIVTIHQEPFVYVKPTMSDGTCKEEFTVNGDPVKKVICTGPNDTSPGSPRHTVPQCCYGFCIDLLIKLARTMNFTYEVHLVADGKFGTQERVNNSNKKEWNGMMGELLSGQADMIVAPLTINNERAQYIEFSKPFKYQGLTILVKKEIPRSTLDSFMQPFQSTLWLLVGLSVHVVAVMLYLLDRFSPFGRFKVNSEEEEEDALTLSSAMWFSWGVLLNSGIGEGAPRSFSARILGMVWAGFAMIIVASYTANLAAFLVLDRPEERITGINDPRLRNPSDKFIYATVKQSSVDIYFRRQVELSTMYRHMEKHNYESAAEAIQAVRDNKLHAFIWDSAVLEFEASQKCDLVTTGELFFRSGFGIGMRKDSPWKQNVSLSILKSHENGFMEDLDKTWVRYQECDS
- assay-details: Off-target screening (CEREP)
- Type: binding
- condition-description: read-out: percent inhibition
Reported inhibition at 10 µM by item:
Numbers only; they are read as %.

CN1C(=O)[C@H](CCCCN)NC(=O)[C@H](CCCN)NCc2cccnc2Sc2c(Cl)ccc(Cl)c2CNC(=O)[C@@H]1Cc1c[nH]c2ccccc12 [RO7075573]: -29
CN1C(=O)[C@H](CCCN)NC(=O)[C@H](CCCN)NCc2ccccc2Sc2ccccc2CNC(=O)[C@@H]1Cc1c[nH]c2ccccc12 [RO7036668]: -27

Ask | Any idea what inhibition at 10 µM was measured for CN1C(=O)[C@H](CCCCN)NC(=O)[C@H](CCCN)NCc2cccnc2Sc2c(Cl)ccc(-c3ccc(C(=O)O)cc3)c2CNC(=O)[C@@H]1Cc1c[nH]c2ccccc12 [RO7202110] ?
Reply | -25

Ask | Reported inhibition at 10 µM, compound CN1C(=O)[C@H](CCCCN)NC(=O)[C@H](CCCN)NCc2cccnc2Sc2cccc(-c3ccc(C(=O)O)cc3)c2CNC(=O)[C@@H]1Cc1c[nH]c2ccccc12 [zosurabalpin] : ____
Reply | 15
